meta.source: patent EP4778922A1

Measured pIC50, listed per entry for reference.
targetUnderTest: CYP2C9 (Homo sapiens, UniProt P11712)
Construct: co-incubated with human liver microsomes; from tissue; host or cells: human liver microsomes
Sequence (P11712 whole entry): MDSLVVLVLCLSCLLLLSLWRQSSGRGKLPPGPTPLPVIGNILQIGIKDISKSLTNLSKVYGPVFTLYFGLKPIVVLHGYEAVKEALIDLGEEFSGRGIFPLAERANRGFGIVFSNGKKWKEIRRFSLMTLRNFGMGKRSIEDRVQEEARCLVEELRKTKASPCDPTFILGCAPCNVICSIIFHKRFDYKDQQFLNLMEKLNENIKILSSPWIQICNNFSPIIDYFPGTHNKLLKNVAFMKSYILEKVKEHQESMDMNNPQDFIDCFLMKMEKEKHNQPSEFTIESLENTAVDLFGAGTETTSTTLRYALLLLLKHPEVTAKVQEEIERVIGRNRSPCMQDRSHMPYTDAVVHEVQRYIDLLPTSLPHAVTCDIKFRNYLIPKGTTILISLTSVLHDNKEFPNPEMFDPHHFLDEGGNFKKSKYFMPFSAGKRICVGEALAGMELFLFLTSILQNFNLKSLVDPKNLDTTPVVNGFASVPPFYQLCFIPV
methodSummary: CYP inhibition assay in human liver microsomes
Format: in vitro ADME
runParameters: human liver microsomes, NADPH; read-out: CYPs 2C9 (IC50)
pIC50 is a log-scale quantity: -log10 of the concentration expressed in molar.

Answered cases to consult:
CC(C)(c1ccc(-c2cnc(OCc3ccnc(N4CC(S(=O)(=O)C5CC5)C4)n3)cn2)cc1)c1cc(Cl)c(OCCCl)c(C#N)c1: 5.72
CC(C)(c1ccc(-c2cnc(OCc3ccnc(N4CC5(C4)CS(=N)(=O)C5)n3)cn2)cc1)c1cc(Cl)c(OCCCl)c(C#N)c1: 5.00
CC(C)(c1ccc(-c2ccc(OC3CCN(c4ccnc(P(C)(C)=O)n4)CC3)cc2)cc1)c1cc(Cl)c(OCCCl)c(C#N)c1: 5.27
CC(C)(c1ccc(-c2cnc(OCc3ccnc(N4CC(S(C)(=O)=O)C4)n3)cn2)cc1)c1cc(Cl)c(OCCCl)c(C#N)c1: 5.08
CC(C)(c1ccc(-c2ccc(OCc3ccnc(N4CC(S(C)(=O)=O)C4)n3)cn2)cc1)c1cc(Cl)c(OCCCl)c(C#N)c1: 5.19

// `CC(C)(c1ccc(-c2cnc(OCc3ccc(-c4cnc(P(C)(C)=O)cn4)cc3)cn2)cc1)c1cc(Cl)c(OCCCl)c(C#N)c1` : pIC50 value = 5.24

====

methodSummary: Mouse pharmacokinetic test
Type: in vivo, ICR mice
runParameters: plasma, 30 mg/kg, PO-30mpk
readoutLabel: AUC(0-inf) (µg·h/mL)
Hi! Could you send only the number? It should be in µg·h/mL, unit omitted.

CC(C)(c1ccc(-c2ccc(OCc3ccnc(P(C)(C)=O)n3)cc2)cc1)c1cnc2c(cnn2CCCl)c1: 422

Now turn to the next compound.
// `CCCOc1c(Cl)cc(C(C)(C)c2ccc(-c3ccc(OCc4ccnc(P(C)(C)=O)n4)cc3)cc2)cc1C#N` : AUC(0-inf) value = 481

====

methodSummary: Mouse pharmacokinetic test
Type: in vivo, ICR mice
runParameters: plasma, po, 30 mg/kg, PO-30mpk
readoutLabel: half-life (h)
Hi! Could you send only the number? It should be in h, unit omitted.

CC(C)(c1ccc(-c2ccc(OCc3ccnc(N4CC5(CC(S(C)(=N)=O)C5)C4)n3)cc2)cc1)c1cc(Cl)c(OCCCl)c(C#N)c1 (stereo not shown): 7.3
CC(C)(c1ccc(-c2cnc(OCc3ccnc(N4CC(S(C)(=O)=O)C4)n3)cn2)cc1)c1cc(Cl)c(OCCCl)c(C#N)c1: 5.2

// `CC(C)(c1ccc(-c2ccc(Oc3ccnc(P(C)(C)=O)n3)cc2)cc1)c1cc(Cl)c(OCCCl)c(C#N)c1` : half-life value = 7.81

// CC(C)(c1ccc(-c2ccc(OCC3CC4(C3)CS(=N)(=O)C4)cc2)cc1)c1cc(Cl)c(OCCCl)c(C#N)c1 (stereo not shown) : half-life value = 4.45

// `CC(C)(c1ccc(-c2ccc(OCc3ccnc(P(C)(C)=O)n3)nc2)cc1)c1cc(Cl)c(OCCCl)c(C#N)c1` : half-life value = 5.82

// `CC(C)(c1ccc(-c2ccc(OCc3ccnc(N4CC(P(C)(C)=O)C4)n3)cc2)cc1)c1cc(Cl)c(OCCCl)c(C#N)c1` : half-life value = 5.6

// `CC(C)(c1ccc(-c2ccc(OCc3ccnc(P(C)(C)=O)n3)c(F)c2)cc1)c1cc(Cl)c(OCCCl)c(C#N)c1` : half-life value = 12.1

// `CC(C)(c1ccc(-c2ccc(OCc3ccnc(N4CC5(CCS(=O)(=O)CC5)C4)n3)cc2)cc1)c1cc(Cl)c(OCCCl)c(C#N)c1` : half-life value = 33.7

// `CC(C)(c1ccc(-c2cnc(OCc3ccnc(N=S4(=O)CCOCC4)n3)cn2)cc1)c1cc(Cl)c(OCCCl)c(C#N)c1` : half-life value = 1.7

// `CC(C)(c1ccc(-c2ccc(OCc3ccc(-c4cnc(P(C)(C)=O)nc4)cc3)cc2)cc1)c1cc(Cl)c(OCCCl)c(C#N)c1` : half-life value = 16.6

// `CC(C)(c1ccc(-c2ncc(OCc3ccc(-c4cnc(P(C)(C)=O)nc4)cc3)cn2)cc1)c1cc(Cl)c(OCCCl)c(C#N)c1` : half-life value = 5.8

// `CC(C)(c1ccc(-c2ccc(OCc3ccnc(N4CC(S(C)(=O)=O)C4)n3)nc2)cc1)c1cc(Cl)c(OCCCl)c(C#N)c1` : half-life value = 9.8

// `CC(C)(c1ccc(-c2ccc(OCc3ccnc(N4CC(S(C)(=O)=O)C4)n3)cn2)cc1)c1cc(Cl)c(OCCCl)c(C#N)c1` : half-life value = 8.9
